The reported measurements were obtained from PubChem BioAssay (NCI).

System: SR leukemia
Test: NCI tumour cell line growth inhibition, 48 h
Residues, ends and D or L forms follow the SMILES beside them. *: point of attachment. Boc = CC(C)(C)OC(=O)*; OBn = c1ccc(CO*)cc1
Could you please report measured TGI for the items listed next?

Find the recorded TGI belonging to "Nc1c(N2CCOCC2)c(=O)nc2[nH]/c(=C\c3ccccc3)c(=O)n12" and report it.
> 100 µM

Quick one: TGI for CC(C)CC(Nc1c(O)ccc2ccccc12)C(=O)O (stereo not given) ?
> 100 µM

Item under review: "C/C(=N\NC(=S)N1CC2CCC(CC2)C1)c1cccc(C)n1" . Reported TGI?
> 32.9 µM

Fill in: TGI of "O=C(O)CN1CCN(CC(=O)N2CCN(C(=O)OCc3ccccc3)CC2)CCN(CC(=O)O)CCN(CC(=O)N2CCN(C(=O)OCc3ccccc3)CC2)CC1" is ___
> 100 µM

State the recorded TGI for this entry: "COc1ccc2c(c1)[n+]([O-])c(-c1ccc(C)cc1)c(N)[n+]2[O-]"
> 100 µM

Quick one: TGI of "COc1c(-c2ccc(O)c(O)c2)oc2c(O)c(O)cc(O)c2c1=O" ?
50.8 µM

Please give the measured TGI for this compound: CC(C)CC(NC(=O)OC(C)(C)C)C(=O)N1CCCC1C(=O)OCc1ccccc1 (stereo not drawn) (Boc-Leu-Pro-OBn; configuration not given here)
> 100 µM

For the compound shown here, Cc1sc(C)c2c1C(=O)CC2N (stereo not given) , give the reported TGI.
> 100 µM

Look up TGI: "O=S(=O)(c1ccccc1)n1cc(C[P+](c2ccccc2)(c2ccccc2)c2ccccc2)c2ccccc21"
31.6 µM

Given "N#Cc1c(N)nc(N)nc1N[C@H](c1nc2c(F)ccc(Cl)c2c(=O)n1-c1cccnc1)C1CC1" , state its recorded TGI.
52.5 µM

Quick one: TGI of "COc1cc([C@@]23OC[C@@H]4[C@@H](OC[C@@H]42)c2cc4c(cc23)OCO4)cc(OC)c1OC" ?
> 77 µM

Which TGI is listed for "Cc1ncc([N+](=O)[O-])n1CCNCCCn1ccnc1[N+](=O)[O-]" ?
> 100 µM

Given the compound CC12CO[C@@](C)(CC(S(=O)(=O)c3ccccc3)C1)O2 (stereo not given in full) , what is its reported TGI?
> 100 µM

I'd like to know its TGI. The compound in question is COc1ccc(/C=c2/sc3n(c2=O)NC2(CCC(C)CC2)NN=3)cc1 (stereo not given)
> 100 µM

# query: TGI of entry "O=c1[nH]nc(Cn2c3ccc(Br)cc3c3nc4ccccc4nc32)n1C1CCCCC1"
> 100 µM

# query: TGI of entry "CC1(C)C(=O)/C=C\C(=O)C(C)(C)C(=O)/C=C\C(=O)C(C)(C)C(=O)/C=C\C(=O)C(C)(C)C(=O)/C=C\C1=O"
27.8 µM

Give the measured TGI of CN(C)CC(C(=O)Cc1ccccc1)c1ccccc1 (stereo not given) .
7.55 µM

For the compound C=C1C(=O)OC2CC(=C)C3CC=C(C)C3CC12 (stereo not given) , what TGI is on record?
55.6 µM

Entry "CCCCCCCCCCCCOc1ccc(/C=C/C2=[N+](CCCl)CCO2)cc1" has what TGI?
50.9 µM

// TGI lookup, key: CC1(C)C2CC3C4CC5(Nc6ccccc6C5N41)[C@]3(C)CC2=O (stereo not given in full)
> 50 µM

====

Test system: HT29 colon
Test: NCI tumour cell line growth inhibition, 48 h
So I've got a bunch of compounds here, and I need their TGI values.

What value of TGI has been reported for the following compound? C=C(C)C(O)C(O)C[C@@H](C)C1CC[C@]23C[C@]12CCC1[C@@]2(C)CCC(OC(C)=O)C(C)(C)C2CC(OC2OC(CO)C(O)C(O)C2O)[C@]13C (some centres undefined)
33.6 µM

Any idea what TGI was measured for CC1C[C@]2(C[C@@H](C)C(=O)O2)O[C@@H]2CC3(C)[C@@H]4CCC5C(C)(C)OC(=O)C[C@H]6OO[C@]4(CC[C@]3(C)C12)CC56O (some centres undefined) ?
> 100 µM

// returns reported TGI for input "O=C(CCCl)NNC1=NCCCCN1"
> 100 µM

# get_value(readout='TGI', item= "CNS(=O)(=O)NN(C)S(=O)(=O)c1ccc2ccccc2c1" )
> 100 µM

Which TGI value is on record for "COC(=O)c1c[nH]c2c1-c1cc(C(=O)OCc3ccccc3)n(S(=O)(=O)c3ccc(C)cc3)c1C(=O)C2=O" ?
0.418 µM

Look up TGI: C[C@]1(Cn2ccnn2)C(C(=O)O)N2C(=O)CC2S1(=O)=O (some centres undefined)
> 100 µM

I am curious: what TGI value has been reported for "Oc1cccc2cc(Br)cnc12" ?
> 73.1 µM

Entry "COc1ccc2c(Cl)cc(NC(=O)Nc3c(C)cccc3C)nc2c1" has what TGI?
> 100 µM

Given the entry "Oc1cccc(/C=N/Nc2nnc(N/N=C/c3cccc(O)c3)c3ccccc23)c1" , report its measured TGI.
> 100 µM

====

Test system: SNB-19 CNS
Assay: NCI tumour cell line growth inhibition, 48 h
Please respond with reported TGI for every item in the list.

For the compound shown here, "CC1(C)C(=O)/C=C\C(=O)C(C)(C)C(=O)/C=C\C(=O)C(C)(C)C(=O)/C=C\C(=O)C(C)(C)C(=O)/C=C\C1=O" , give the reported TGI.
> 71.1 µM

# TGI lookup, item C[C@]1(Cn2ccnn2)C(C(=O)O)N2C(=O)CC2S1(=O)=O (stereo not given in full)
> 100 µM

For the compound shown here, CN(C)CC1CCCCCCCCCC(CN(C)C)C1=O (stereo not given) , give the reported TGI.
> 55.6 µM

Field request: TGI | item: CC1C[C@]2(C[C@@H](C)C(=O)O2)O[C@@H]2CC3(C)[C@@H]4CCC5C(C)(C)OC(=O)C[C@H]6OO[C@]4(CC[C@]3(C)C12)CC56O (stereo not given in full)
> 100 µM

Give the measured TGI of "O=c1[nH]nc(Cn2c3ccc(Br)cc3c3nc4ccccc4nc32)n1C1CCCCC1" .
> 100 µM

// returns reported TGI for input "CC(=O)ON1C(=O)c2cccc3cccc(c23)C1=O"
> 100 µM

Given the entry "COc1c(-c2ccc(O)c(O)c2)oc2c(O)c(O)cc(O)c2c1=O" , report its measured TGI.
> 100 µM

// returns reported TGI for input "O=C(NCCN1CCCCC1)c1ccc(I)cc1"
> 100 µM

What TGI value was documented for this compound, Cc1sc(C)c2c1C(=O)CC2N (stereo not given) ?
> 100 µM

Param item = "CCCCCCCCCCCCOc1ccc(/C=C/C2=[N+](CCCl)CCO2)cc1" ; retrieve measured TGI.
> 100 µM

====

Test system: UO-31 renal
Assay: NCI tumour cell line growth inhibition, 48 h
experimental-readout: GI50

Given the entry "Cn1c2ccccc2c2c3[nH][nH]c(=O)c3c3c4ccccc4[nH]c3c21" , report its measured GI50.
2.68 µM

Please give the measured GI50 for this compound: "CCN(CC)CCN(Cc1ccc(F)cc1)c1ccc(CO)c(Cl)c1"
19.5 µM

Which GI50 is listed for Nc1nc(N)c2c(n1)NC(c1ccccc1)C1CCc3ccccc3C1=N2 (configuration not stated) ?
2.5 µM

Please look up its GI50: "c1cncc(C2Nc3cccc4cccc(c34)N2)c1"
11.7 µM

Give the measured GI50 of "CC(=O)[CH-]C(=O)c1ccccc1.CC(=O)[CH-]C(=O)c1ccccc1.Cl.[O-]c1ccccn1.[O-]c1ccccn1.[Ti+4]" .
> 100 µM

Sample Cc1[nH]c(-c2nc3ccccc3[nH]2)c(C)c1C(=O)NC(C)C1CCCCC1 (configuration not stated) — what was its GI50?
11.9 µM

Endpoint output: GI50 of "OCCNCCCOc1ccc2ncnc(Nc3ccc(Oc4cccc(C(F)(F)F)c4)c(Cl)c3)c2c1" . Value?
1.29 µM

====

System: KM12 colon
Assay: NCI tumour cell line growth inhibition, 48 h; in the data active means GI50 below about 0.43 µM; inactive means the rest
Lab note: assign the record to one of active, inactive

Status in this test for "CC(=O)[CH-]C(=O)c1ccccc1.CC(=O)[CH-]C(=O)c1ccccc1.Cl.[O-]c1ccccn1.[O-]c1ccccn1.[Ti+4]" ?
inactive

Check the results log: what was the call for CN(C)CC(C(=O)Cc1ccccc1)c1ccccc1 (stereo not drawn) ?
inactive

Hello, I am checking results. What call was entered for "N=C(N)c1ccc(NCCOCCNc2ccc(C(=N)N)cc2)cc1" ?
inactive

Could you check what this test reported for "C/C=C/[C@H]1O[C@@H]2C(=C[C@H]1O)C(=O)O[C@H]2C" ?
inactive

Look up the recorded call for C=CC/C(=C\COP(=O)(OCc1ccc([N+](=O)[O-])o1)N(C)CCCCCl)CC/C=C(\C)CCC=C(C)C (stereo not drawn) in this test.
inactive

Can you look up the reported call for "c1cncc(C2Nc3cccc4cccc(c34)N2)c1" for me?
inactive

Given "COc1cc(N2CCN(C(C)C)CC2)ccc1Nc1nc(Nc2cccc(F)c2C(=O)O)c2cc[nH]c2n1" , state the outcome it received in this test.
inactive

Name the outcome recorded for "O=C1C(=O)c2ccccc2C(O)=C1CCCc1ccc(C2CCCCCC2)cc1" in the assay.
inactive

Dear all, I need the recorded test outcome for C=C(CC(=O)O)C(=O)O (tested in a mixture with another compound) , thank you.
inactive

Hi, do you know how C[C@]1(Cn2ccnn2)C(C(=O)O)N2C(=O)CC2S1(=O)=O (stereo partly drawn) came out in this test?
inactive

Entry "CCc1cc2ncc(CN3CCN(c4ccc(C(=O)NC)nc4)CC3)cc2[nH]c1=O" : call = ?
inactive

Kindly provide the recorded test outcome for the following compound: "COc1ccc(/C=C2\CN(Cc3cn(CCNc4ccnc5cc(Cl)ccc45)nn3)C/C(=C\c3ccc(OC)c(OC)c3)C2=O)cc1OC"
inactive

Recorded call for "CN1CCN(Cc2ccc(NC(=O)c3cncc(C#Cc4cncc5nccnc45)c3)cc2C(F)(F)F)CC1" ?
active

# outcome recorded in this test, key = "Cn1c2ccccc2c2c3[nH][nH]c(=O)c3c3c4ccccc4[nH]c3c21"
inactive

Short answer needed: outcome of this test for "CCCCNC(=O)Oc1ccc(/C(=C(/C)Cc2ccc(OC)cc2)c2ccc(OCCN3CCCC3)cc2)cc1" ?
inactive

// return assay outcome for "CCN(CC)CCN(Cc1ccc(F)cc1)c1ccc(CO)c(Cl)c1"
inactive

GET /call?item= "COc1cc(-c2cc(/C=C/C(=O)c3ccc(Cl)c(Cl)c3)[nH]n2)cc(OC)c1OC" returns the recorded outcome of this test.
inactive

Give the logged outcome of this assay for the following compound: "CCCCC(=O)N/N=C/c1c(O)ccc2ccccc12"
inactive
